# experimental_protocol: recombinant UMI read abundance after kanamycin selection (control-corrected) (log10(CPM+1)); higher = more efficient recombination; extreme values may be limits of the assay; sequences stand for … in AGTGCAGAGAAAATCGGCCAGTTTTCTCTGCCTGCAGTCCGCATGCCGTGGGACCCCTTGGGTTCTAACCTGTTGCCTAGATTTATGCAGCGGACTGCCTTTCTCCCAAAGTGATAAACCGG…AGGTTGGTTTCACT; site = the 11-nt donor;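 also: IS621 bridge recombinase in Escherichia coli cells against a fixed T5 target plasmid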
readout: recombinant UMI read abundance (log10)

Here is how some sequences turned out for recombinant UMI read abundance (log10).
| macromolecule_sequence | readout | reported_value |
| --- | --- | --- |
| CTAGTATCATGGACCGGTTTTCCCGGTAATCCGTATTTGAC (site GTAGTACCTGT) | recombinant UMI read abundance (log10) | 0 |
| CGGGAACCATGGACCGGTTTTCCCGGTAATCCGTATTTGGT (site CGGGAACCTAC) | recombinant UMI read abundance (log10) | 0 |

Read the next record carefully.
Request the reported recombinant UMI read abundance (log10) associated with TGTCCCCCATGGACCGGTTTTCCCGGTAATCCGTATTTGTA (site TGTTCCCCTTA) 0.0128

----------
Listed sequences paired with reported recombinant UMI read abundance (log10)
# experimental_protocol: recombinant UMI read abundance after kanamycin selection (control-corrected) (log10(CPM+1)); higher = more efficient recombination; extreme values may be limits of the assay; sequences stand for … in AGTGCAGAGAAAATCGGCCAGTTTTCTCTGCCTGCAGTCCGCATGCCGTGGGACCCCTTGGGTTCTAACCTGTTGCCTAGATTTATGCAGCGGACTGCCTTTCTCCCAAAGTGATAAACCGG…AGGTTGGTTTCACT; site = the 11-nt donor

| macromolecule_sequence | reported_value |
| --- | --- |
| CAGGCGCCATGGACCGGTTTTCCCGGTAATCCGTATTTGTG (site CACGCGCCTCA) | 0 |
| TCACTATCATGGACCGGTTTTCCCGGTAATCCGTATTTGCA (site TCACTATCTTG) | 2.41 |
| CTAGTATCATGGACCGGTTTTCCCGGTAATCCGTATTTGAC (site TTAGAATCTGT) | 0 |
| CACGGCCCATGGACCGGTTTTCCCGGTAATCCGTATTTGTT (site CACGGCCCTAA) | 0.135 |
| CCGTTAGCATGGACCGGTTTTCCCGGTAATCCGTATTTGTA (site CCGTTAGCTGA) | 0 |
| TATGGGTCATGGACCGGTTTTCCCGGTAATCCGTATTTGCT (site TATGGGTCTAG) | 2.88 |
| CCTAGTTCATGGACCGGTTTTCCCGGTAATCCGTATTTGAA (site CCTAGTTCTTT) | 0 |
| ACTAGTGCATGGACCGGTTTTCCCGGTAATCCGTATTTGGA (site ACTAGTGCTTC) | 1.36 |
| ATCCAAGCATGGACCGGTTTTCCCGGTAATCCGTATTTGAG (site ATCCACGCTCT) | 0.0466 |
| CTCCTCTCATGGACCGGTTTTCCCGGTAATCCGTATTTGTA (site CTACTCTCTTA) | 0.176 |

Entry GAGACGTCATGGACCGGTTTTCCCGGTAATCCGTATTTGCC (site GAGACGTCTGG) has what recombinant UMI read abundance (log10)? 2.04
